Test System: hDHODH (Homo sapiens, UniProt Q02127)
Construct: The plasmid pET-19b–hDHODH (Met30-Arg396) was transformed; inferred from the pET-19b vector and from purification on a chelating column with imidazole elution) (N); made in house; host or cells: E. coli BL21 (DE3)
Sequence (Q02127 29-395 limits assumed): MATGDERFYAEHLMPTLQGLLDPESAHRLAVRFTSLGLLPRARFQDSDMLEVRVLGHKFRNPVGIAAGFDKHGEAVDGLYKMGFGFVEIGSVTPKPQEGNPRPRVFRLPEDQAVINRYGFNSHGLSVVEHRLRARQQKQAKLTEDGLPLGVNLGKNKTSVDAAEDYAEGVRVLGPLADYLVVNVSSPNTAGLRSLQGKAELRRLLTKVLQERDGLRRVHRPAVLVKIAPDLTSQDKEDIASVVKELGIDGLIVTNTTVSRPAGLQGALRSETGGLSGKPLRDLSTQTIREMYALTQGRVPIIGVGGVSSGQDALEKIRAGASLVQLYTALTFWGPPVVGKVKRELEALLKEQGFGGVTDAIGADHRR
Protocol Details: hDHODH enzyme inhibition assay (DCIP/UQ0, dihydroorotate-initiated);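 also: recombinant hDHODH (Met30–Arg396) in HEPES pH 8.0 buffer with KCl and Triton X-100, reaction started by 500 µM dihydroorotate, inhibition from rate with inhibitor relative to uninhibited rate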
Type: biochemical
Measurement Conditions: compound at 10 µM; 10 nM purified hDHODH
Decision: inhibition at 10 µM >= 40% yields condition met, all other cases yield condition not met.

I'd appreciate it if you could say whether COC(=O)/C(C#N)=C1\SCC(=O)N1c1ccc(C(=O)Nc2ccc(F)cc2)cc1 has inhibition at 10 µM at least equal to 40%.
condition met

Form field: inhibition at 10 µM at least 40%? Entry: COC(=O)/C(C#N)=C1\SCC(=O)N1c1ccc(C(=O)NC2CCCCC2)cc1
condition met

Record COC(=O)/C(C#N)=C1\SCC(=O)N1c1ccc(OCc2ccccc2C(=O)O)cc1 ; criterion: inhibition at 10 µM no lower than 40%. Met?
condition not met

Tell me whether inhibition at 10 µM is at least 40% here: COC(=O)/C(C#N)=C1\SCC(=O)N1c1ccc(C(=O)Nc2ccc(Cl)cc2)cc1
condition met

Could you please find out whether COC(=O)/C(C#N)=C1\SCC(=O)N1c1ccc(C(=O)Nc2ccc(C(C)(C)C)cc2)cc1 has inhibition at 10 µM that meets 40% or exceeds it?
condition met

Now turn to the next compound.
Does inhibition at 10 µM meet or surpass 40% for COC(=O)/C(C#N)=C1\SCC(=O)N1c1ccc(C(=O)Nc2ccccc2)cc1 ?
condition met

###

Assay Endpoint: melting point

The reported melting point of the compound COC(=O)/C(C#N)=C1\SCC(=O)N1c1ccc(C(=O)Nc2ccc(C(F)(F)F)cc2)cc1 was 264.2 to 265.1 °C

Please fill in: melting point reported for COC(=O)/C(C#N)=C1\SCC(=O)N1c1ccc(Oc2ccc(C(C)(C)C)cc2)cc1 = 212.9 to 213.9 °C

response.value for COC(=O)/C(C#N)=C1\SCC(=O)N1c1ccc(Oc2cccc(C(F)(F)F)c2)cc1 (field: melting point) = 159.7 to 161.3 °C

So, COC(=O)/C(C#N)=C1\SCC(=O)N1c1ccc(C(=O)Nc2ccc3ccccc3c2)cc1 ? Its melting point was 285 to 286 °C

# melting point of COC(=O)/C(C#N)=C1\SCC(=O)N1c1ccc(C(=O)Nc2ccccc2)cc1 = 194.9 to 195.6 °C

For COC(=O)/C(C#N)=C1\SCC(=O)N1c1ccc(C(=O)Nc2ccc(Cl)cc2)cc1 the compound record lists melting point as 280.1 to 280.9 °C

// field: melting point; key: COC(=O)/C(C#N)=C1\SCC(=O)N1c1ccc(C(=O)Nc2ccc(OC)cc2)cc1 ; value = 268.9 to 269.7 °C

Now examine the next entry.
Record summary for COC(=O)/C(C#N)=C1\SCC(=O)N1c1ccc(C(=O)Nc2ccc(F)c(C#N)c2)cc1 : reported melting point = 264.2 to 265.1 °C

###

A collection of compounds and their measured pIC50
Test System: hDHODH (Homo sapiens)
pIC50: −log10 of the molar value.

The compound COC(=O)/C(C#N)=C1\SCC(=O)N1c1ccc(C(=O)Nc2ccc(OC)cc2)cc1 , when measured on hDHODH (Homo sapiens), yielded pIC50 of 5.30

Summary line: COC(=O)/C(C#N)=C1\SCC(=O)N1c1ccc(Oc2ccccc2OC)cc1 , hDHODH (Homo sapiens), reported pIC50 = < 5.00

Result for COC(=O)/C(C#N)=C1\SCC(=O)N1c1ccc(C(=O)Nc2ccc(C(F)(F)F)cc2)cc1 , tested on hDHODH (Homo sapiens), pIC50: < 5.00

Next:
Record for COC(=O)/C(C#N)=C1\SCC(=O)N1c1ccc(C(=O)NCc2cccc(C(=O)O)c2)cc1 under target or system hDHODH (Homo sapiens): pIC50 reported as < 5.00
